Kindly supply the reported polymerase ribozyme fitness (log ratio) values for the records listed here.
B1: TPR 5TU (parent)
chain: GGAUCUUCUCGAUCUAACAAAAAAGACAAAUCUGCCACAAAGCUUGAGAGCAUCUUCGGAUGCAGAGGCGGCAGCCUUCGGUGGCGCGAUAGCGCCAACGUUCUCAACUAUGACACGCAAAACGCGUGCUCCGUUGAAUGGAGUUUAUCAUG

Variants of: B1
Experiment: polymerase ribozyme fitness, log enrichment relative to wild type (log ratio); higher = more active; in vitro selection for triplet polymerase activity
This sample holds only a part of the variants without activity.
No unit in the answer, please; the number alone is enough.

Item under review: A119G . Reported polymerase ribozyme fitness (log ratio)?
-0.045

Item under review: A30U U56A G62A G126A . Reported polymerase ribozyme fitness (log ratio)?
-3.5

Item under review: A21U G84C A121U A122C . Reported polymerase ribozyme fitness (log ratio)?
-1.35

Item under review: G80U G84A G126C C132U U145A . Reported polymerase ribozyme fitness (log ratio)?
-3.25

Item under review: A49C C96A . Reported polymerase ribozyme fitness (log ratio)?
-3.04

Item under review: A12G U31G C118A A120G G141C . Reported polymerase ribozyme fitness (log ratio)?
-2.6

Item under review: G81A C95A . Reported polymerase ribozyme fitness (log ratio)?
-0.0952

Item under review: C72U C96A C105U C132U . Reported polymerase ribozyme fitness (log ratio)?
-1.29

Item under review: A19C A107G . Reported polymerase ribozyme fitness (log ratio)?
-3.75

Item under review: A20U C51U U55G C57G A120C . Reported polymerase ribozyme fitness (log ratio)?
-3.76

Item under review: A40C U55A G59A A113U C123A . Reported polymerase ribozyme fitness (log ratio)?
-0.982

Item under review: U4A A12C U55A G84U . Reported polymerase ribozyme fitness (log ratio)?
-2.4

Item under review: C93G A142U . Reported polymerase ribozyme fitness (log ratio)?
-3.03

Item under review: C38U A106U U145C . Reported polymerase ribozyme fitness (log ratio)?
-1.24

Item under review: U101G G136A . Reported polymerase ribozyme fitness (log ratio)?
0.652

Item under review: G48C G141A . Reported polymerase ribozyme fitness (log ratio)?
-3.64
